EXPERIMENTAL_TARGET: UniProt Q92731
Sequence (Q92731 whole entry): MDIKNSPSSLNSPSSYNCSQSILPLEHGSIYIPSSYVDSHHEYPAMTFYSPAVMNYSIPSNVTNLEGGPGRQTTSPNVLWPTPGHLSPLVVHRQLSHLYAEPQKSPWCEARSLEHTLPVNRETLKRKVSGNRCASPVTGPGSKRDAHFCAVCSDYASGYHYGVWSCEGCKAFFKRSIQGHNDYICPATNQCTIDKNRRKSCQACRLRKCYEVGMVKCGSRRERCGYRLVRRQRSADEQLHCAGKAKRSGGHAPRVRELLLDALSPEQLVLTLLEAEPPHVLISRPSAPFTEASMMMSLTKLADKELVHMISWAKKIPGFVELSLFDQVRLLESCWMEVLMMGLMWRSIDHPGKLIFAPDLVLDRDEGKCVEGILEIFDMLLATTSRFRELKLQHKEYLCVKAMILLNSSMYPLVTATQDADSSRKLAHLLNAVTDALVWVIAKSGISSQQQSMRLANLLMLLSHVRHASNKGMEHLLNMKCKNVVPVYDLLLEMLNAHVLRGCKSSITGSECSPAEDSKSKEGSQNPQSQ
PROTOCOL: In vitro nuclear receptor profile, ERβ agonism
CONDITION_LABEL: agonist mode; read-out: ERβ ago EC50
OUTCOME_MEASURE: EC50

[
  {
    "COMPOUND": "CCC[C@@H]1Cc2cc(O)ccc2[C@H]2CC[C@@]3(C)[C@@H](C[C@H]4CC[C@H](O)C[C@]43O)[C@H]12 [Org 41621, reference compound]",
    "EC50": "> 0.1 µM"
  }
]

# input So what does the record say about EC50 for `CCC[C@@H]1Cc2cc(O)ccc2[C@H]2CC[C@@]3(C)[C@@H](C[C@H]4CCC(=O)C[C@]43O)[C@H]12` ?
# output > 10 µM
